Data provenance is patent US9480649B2.

# ASSAY REMARKS: Solubility in water
# Type: physicochemical
# ASSAY CONDITIONS: based on our own results
ENDPOINT NAME: solubility (µg/mL)
Respond with the bare value in µg/mL.

State the recorded solubility for this entry: O=c1c(O)c(-c2cc(O)c(O)c(O)c2)oc2cc(O)cc(O)c12 65
